Data origin: ChEMBL document CHEMBL1137378

Readings of Ratio Ki for the listed compounds
- Protocol notes: Specificity Index, Ki for human thymidylate synthase/Ki for Escherichia coli thymidylate synthase

>  <Compound>
O=C1OC(c2ccc(O)c(F)c2)(c2ccc(O)c(F)c2)c2ccc(Cl)c3cccc1c23

>  <Ratio Ki>
> 223

$$$$
>  <Compound>
O=C1OC(c2ccc(O)c(I)c2)(c2ccc(O)c(I)c2)c2c1ccc1ccccc21

>  <Ratio Ki>
> 163

$$$$
>  <Compound>
O=C1OC(c2cc(Br)c(O)c(Br)c2)(c2cc(Br)c(O)c(Br)c2)c2c1ccc1ccccc21

>  <Ratio Ki>
> 29

$$$$
>  <Compound>
O=C1OC(c2ccc(O)c(Br)c2)(c2ccc(O)c(Br)c2)c2c1ccc1ccccc21

>  <Ratio Ki>
> 147

$$$$
>  <Compound>
O=C1OC(c2ccc(O)cc2)(c2ccc(O)c(Br)c2)c2cccc3cccc1c23 (stereo not given)

>  <Ratio Ki>
> 330

$$$$
